Reported percent inhibition of viability is given for each of the following compounds.
System: YT (IL-2 2.5 ng/mL)
test_name: percent inhibition of viability; higher = more inhibition;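 also: normalised to DMSO-only wells as negative and benzethonium chloride as positive control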
particulars: 72 h; 10 nM
property: percent inhibition of viability (%)

>>> meas_value("CNC(=O)c1nn(C)c2c1C(C)(C)Cc1cnc(Nc3ccc(N4CCN(C)CC4)cc3)nc1-2 [Milciclib] (max concentration tested 10000 nM)")
0.13
>>> meas_value("CC(=O)[C@]1(O)Cc2c(O)c3c(c(O)c2[C@@H](O[C@H]2C[C@H](N)[C@H](O)[C@H](C)O2)C1)C(=O)c1ccccc1C3=O [Idarubicin] (max concentration tested 1000 nM)")
-4.8
>>> meas_value("CC(C)n1nc(-c2ccc3oc(N)nc3c2)c2c(N)ncnc21 [INK128] (max concentration tested 1000 nM)")
15.8
>>> meas_value("Cc1ccc(NC(=O)c2ccc(CN3CC[C@H](N(C)C)C3)c(C(F)(F)F)c2)cc1Nc1nccc(-c2cncnc2)n1 [Bafetinib] (max concentration tested 1000 nM)")
-1.09
>>> meas_value("CNCc1ccc(-c2[nH]c3cc(F)cc4c3c2CCNC4=O)cc1 [Rucaparib] (max concentration tested 10000 nM)")
-5.01
>>> meas_value("COc1ccc(-c2ccc3c(N4CCOC[C@@H]4C)nc(N4CCOC[C@@H]4C)nc3n2)cc1CO [AZD8055] (max concentration tested 10000 nM)")
12.9
